Tested on: LNCaP
Protocol: cells
Test conditions: Homo sapiens, 96 h, read-out: IC50 ± SEM (nM), LNCaP
// reported IC50 per item

Recorded results for 4 compounds are shown here.
COc1cc(NS(=O)(=O)c2cccc(-c3ccccc3)c2)cc(OC)c1OC [4d] ... > 10000 nM
COc1cc(-c2nc(C(=O)c3ccc(F)cc3)cn2S(=O)(=O)c2ccccc2)cc(OC)c1OC [11eb] ... > 10000 nM
COc1cc(C(=O)c2cnc(-c3ccccc3)s2)cc(OC)c1OC [1e] ... > 10000 nM
COc1cc(/C=C\c2csc(-c3ccccc3)n2)cc(OC)c1OC [3a] ... > 10000 nM

Now for the compound whose IC50 we want.
# compound COc1cc(C(=O)N2CCC(c3ccccc3)CC2)cc(OC)c1OC [1g] ; its IC50 = > 20000 nM

----------
// reported IC50 per item
System: DU 145
Protocol: cells
Test conditions: Homo sapiens, DU-145, 96 h, read-out: IC50 ± SEM (nM), DU 145

COc1cc(NS(=O)(=O)c2cccc(-c3ccccc3)c2)cc(OC)c1OC ... > 10000 nM

# compound "COc1cc(NC(=O)c2csc(-c3ccccc3)n2)cc(OC)c1OC" ; its IC50 = > 10000 nM

# compound "COc1cc(C(=O)Nc2csc(-c3ccccc3)n2)cc(OC)c1OC" ; its IC50 = > 10000 nM

----------
Tested on: DU 145
Protocol: cells
Test conditions: Homo sapiens, DU-145, 96 h, read-out: IC50 ± SEM (nM), DU 145
Readout type: IC50

COc1cc(/C=C\c2csc(-c3ccccc3)n2)cc(OC)c1OC ... > 10000 nM

Now for the compound whose IC50 we want.
# compound COc1cc(C(O)c2csc(-c3ccccc3)n2)cc(OC)c1OC (stereo not shown) ; its IC50 = > 10000 nM

----------
Test system: B16-F1
Protocol: SRB cell growth inhibition (cytotoxicity) assay
Format: cell-based, mouse
Test conditions: Mus musculus; B16-F1 melanoma cells, 48 h, SRB; read-out: IC50 ± SEM (nM) B16-F1
// reported IC50 per item

Recorded results for 5 compounds are shown here.
COc1cc(C(=O)c2cn(S(=O)(=O)c3ccccc3)c(-c3ccccc3C(F)(F)F)n2)cc(OC)c1OC [11ia] ... > 10000 nM
O=C(c1cc(O)c(O)c(O)c1)c1c[nH]c(-c2ccc(O)c(O)c2)n1 [13ha] ... > 10000 nM
Cc1ccc(C(=O)c2cn(S(=O)(=O)c3ccccc3)c(-c3ccccc3)n2)cc1 [11ah] ... > 10000 nM
COc1cc(-c2nc(C(=O)c3ccc(F)cc3)cn2S(=O)(=O)c2ccccc2)cc(OC)c1OC [11eb] ... > 10000 nM
O=C(c1ccc(F)cc1)c1cn(S(=O)(=O)c2ccccc2)c(-c2ccccc2C(F)(F)F)n1 [11ib] ... > 10000 nM

Now for the compound whose IC50 we want.
Entry COc1ccc(C(=O)c2cn(S(=O)(=O)c3ccccc3)c(-c3ccccc3)n2)cc1 [11ab] : IC50 on B16-F1 = > 10000 nM

----------
System: PPC-1
Protocol: cells
Test conditions: Homo sapiens, PPC-1, 96 h, read-out: IC50 ± SEM (nM), PPC-1
// reported IC50 per item

Recorded results for 10 compounds are shown here.
CO/N=C(/c1cc(OC)c(OC)c(OC)c1)c1csc(-c2ccccc2)n1 [2f-cis] ... > 10000 nM
COc1cc(C(=O)c2c[nH]c(-c3cc(OC)c(OC)c(OC)c3)n2)cc(OC)c1OC [12ea] ... > 10000 nM
COc1cc(-c2csc(-c3ccccc3)n2)cc(OC)c1OC [2i] ... > 10000 nM
CNCc1ccc(-c2nc(C(=O)c3cc(OC)c(OC)c(OC)c3)cs2)cc1.Cl [2s, hydrochloride] ... ~1000 nM
COc1cc(C(=O)c2cnc(-c3ccccc3)s2)cc(OC)c1OC [1e] ... > 10000 nM
COc1cccc(C(=O)c2cn(S(=O)(=O)c3ccccc3)c(-c3ccccc3)n2)c1 [11ac] ... > 10000 nM
O=C(c1ccc(F)cc1)c1cn(S(=O)(=O)c2ccccc2)c(-c2ccccc2C(F)(F)F)n1 [11ib] ... > 10000 nM
c1ccc(Nc2nccn2C(c2ccccc2)(c2ccccc2)c2ccccc2)cc1 [d, N-Phenyl-1-trityl-1H-imidazol-2-amine] ... > 1000 nM
COc1cc(/C=C/c2csc(-c3ccccc3)n2)cc(OC)c1OC [3b] ... > 10000 nM
COc1ccc(C(=O)c2cn(S(=O)(=O)c3ccccc3)c(-c3ccccc3)n2)cc1 [11ab] ... > 10000 nM

# compound O=C(c1ccc(F)cc1)c1cn(S(=O)(=O)c2ccccc2)c(-c2ccccc2)n1 [11af] ; its IC50 = 575 nM

# compound COc1cc(C(=O)N2CCC(c3ccccc3)CC2)cc(OC)c1OC [1g] ; its IC50 = > 20000 nM

# compound COc1cc(C(=O)c2coc(-c3ccccc3)n2)cc(OC)c1OC [36a] ; its IC50 = 324 nM

# compound COc1cc(C(=O)c2cn(Cc3ccccc3)c(-c3ccc(C)cc3)n2)cc(OC)c1OC [12daa] ; its IC50 = 778 nM

# compound COc1ccc(-c2nc(C(=O)c3ccc(F)cc3)cn2S(=O)(=O)c2ccccc2)cc1 [11cb] ; its IC50 = 32 nM

# compound COc1cc(-c2nc(C(=O)c3ccc(F)cc3)c[nH]2)cc(OC)c1OC [12eb] ; its IC50 = > 10000 nM

# compound COc1cc(C(=O)c2csc(Nc3ccc(Cl)cc3)n2)cc(OC)c1OC [5d] ; its IC50 = 36 nM

# compound Cc1ccc(C(=O)c2cn(S(=O)(=O)c3ccccc3)c(-c3ccccc3)n2)cc1 [11ah] ; its IC50 = > 10000 nM

# compound COc1cc(C(=O)c2csc(-c3ccccc3)c2)cc(OC)c1OC [1f] ; its IC50 = 15 nM

# compound COc1cc(C(=O)c2cn(S(=O)(=O)c3ccccc3)c(-c3ccccc3C(F)(F)F)n2)cc(OC)c1OC [11ia] ; its IC50 = > 10000 nM

# compound COc1ccc(S(=O)(=O)n2cc(C(=O)c3ccc(F)cc3)nc2-c2ccc(N(C)C)cc2)cc1 [12gba] ; its IC50 = 63.4 nM

# compound COc1cc(/C=C\c2csc(-c3ccccc3)n2)cc(OC)c1OC [3a] ; its IC50 = > 10000 nM

# compound COc1cc(C(=O)c2ccc(-c3ccccc3)o2)cc(OC)c1OC [1d] ; its IC50 = 20 nM

# compound O=C(c1ccc(F)cc1)c1c[nH]c(-c2ccc(OCc3ccccc3)cc2)n1 [12jb] ; its IC50 = 43 nM

# compound COc1cc(C(=O)c2cn(C(c3ccccc3)(c3ccccc3)c3ccccc3)c(Nc3ccccc3)n2)cc(OC)c1OC [e] ; its IC50 = > 1000 nM

# compound COc1cc(C(=O)Nc2csc(-c3ccccc3)n2)cc(OC)c1OC [2h] ; its IC50 = > 10000 nM
